Target: SARM1 SAM-TIR (Homo sapiens, UniProt Q6SZW1)
Construct: a fragment of the SARM1 molecule encompassing the SAM and TIR domains; made in house; host or cells: NRK1-HEK293T cells, transiently transfected; the cleared, unpurified lysate was used as the enzyme
Sequence (Q6SZW1 409-724 limits assumed): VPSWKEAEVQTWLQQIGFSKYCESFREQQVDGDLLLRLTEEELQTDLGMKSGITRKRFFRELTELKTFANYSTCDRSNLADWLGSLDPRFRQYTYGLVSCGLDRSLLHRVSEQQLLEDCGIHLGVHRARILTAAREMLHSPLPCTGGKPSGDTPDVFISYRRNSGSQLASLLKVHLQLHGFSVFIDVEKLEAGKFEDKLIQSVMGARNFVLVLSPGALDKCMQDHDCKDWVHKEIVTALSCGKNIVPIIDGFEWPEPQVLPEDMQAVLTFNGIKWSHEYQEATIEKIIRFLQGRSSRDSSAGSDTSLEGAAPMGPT
Experiment: biochemical
Details: SAM-TIR lysate 5 μg/mL, 2 h pre-incubation, 5 μM NAD+, RapidFire MS of NAD+ and ADPR; read-out: SARM1 IC50
Listed compounds paired with reported IC50

[[record]]
input_smiles = "CCn1sc(Nc2ccccc2C(F)(F)F)c(C#N)c1=O"
measurement = "< 1 µM"

[[record]]
input_smiles = "N#Cc1c(O)nsc1Nc1ccc2cccnc2c1"
measurement = "1 to 5 µM"

[[record]]
input_smiles = "COCCn1sc(Nc2c(Cl)cccc2C(F)(F)F)c(C#N)c1=O"
measurement = "< 1 µM"

[[record]]
input_smiles = "Cn1sc(Nc2ccc(Cl)c3c2cnn3C)c(C#N)c1=O"
measurement = "< 1 µM"


With those in mind, consider the next compound.
Look up and report measured IC50 for this entry: N#Cc1c(Nc2ccccc2C(F)(F)F)sn(CC(N)=O)c1=O < 1 µM

----------
The entries below come with measured pIC50 values attached.
Biological target: SARM1 SAM-TIR (Homo sapiens);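 further: inhibition of SARM1 SAM-TIR NADase activity, i.e. NAD+ cleavage, using lysate of NRK1-HEK293T cells overexpressing the SAM-TIR fragment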
Construct: a fragment of the SARM1 molecule encompassing the SAM and TIR domains; made in house; host or cells: NRK1-HEK293T cells, transiently transfected; the cleared, unpurified lysate was used as the enzyme
Assay: biochemical
Conditions: SAM-TIR lysate 5 μg/mL, 2 h pre-incubation, 5 μM NAD+, RapidFire MS of NAD+ and ADPR; read-out: SARM1 IC50
pIC50: −log10 of the molar value.

Below: 6 compounds and their reported pIC50.
[[record]]
input_smiles = "N#Cc1c(O)nsc1Nc1cccc2ncccc12"
quantity_name = "pIC50"
measurement = "5.30 to 6.00"

[[record]]
input_smiles = "N#Cc1c(O)nsc1Nc1cc(Cl)cc(Cl)c1"
quantity_name = "pIC50"
measurement = "5.30 to 6.00"

[[record]]
input_smiles = "Cn1sc(Nc2c(Cl)ccc3c2CCCO3)c(C#N)c1=O"
quantity_name = "pIC50"
measurement = "> 6.00"

[[record]]
input_smiles = "O=C(c1c(Nc2ccccc2C(F)(F)F)s[nH]c1=O)N1CCOCC1"
quantity_name = "pIC50"
measurement = "5.30 to 6.00"

[[record]]
input_smiles = "COc1ccc2nc(C)ccc2c1Nc1s[nH]c(=O)c1C#N"
quantity_name = "pIC50"
measurement = "5.30 to 6.00"

[[record]]
input_smiles = "COCCN(C)C(=O)c1c(Nc2c(Cl)cccc2Cl)s[nH]c1=O"
quantity_name = "pIC50"
measurement = "< 5.30"


Look up SARM1 SAM-TIR (Homo sapiens) data: pIC50 of O=C(c1c(Nc2ccccc2C(F)(F)F)s[nH]c1=O)N1CCCCC1 , then report it. 5.30 to 6.00

Specify pIC50 for CSc1ccccc1Nc1snc(O)c1C#N , system SARM1 SAM-TIR (Homo sapiens). > 6.00

Return reported pIC50 for target or system SARM1 SAM-TIR (Homo sapiens), item CN(C)C(=N)c1c(Nc2ccccc2C2CC2)s[nH]c1=O . 5.30 to 6.00

// output pIC50; input COCCN(C)C(=N)c1c(Nc2cccc(Cl)c2Cl)sn(CCOC)c1=O ; system SARM1 SAM-TIR (Homo sapiens) > 6.00
